# Target Or Test System: 5-hydroxytryptamine receptor 2A (Homo sapiens, UniProt P28223); note: assay procedure not described here
# Sequence (P28223 whole entry): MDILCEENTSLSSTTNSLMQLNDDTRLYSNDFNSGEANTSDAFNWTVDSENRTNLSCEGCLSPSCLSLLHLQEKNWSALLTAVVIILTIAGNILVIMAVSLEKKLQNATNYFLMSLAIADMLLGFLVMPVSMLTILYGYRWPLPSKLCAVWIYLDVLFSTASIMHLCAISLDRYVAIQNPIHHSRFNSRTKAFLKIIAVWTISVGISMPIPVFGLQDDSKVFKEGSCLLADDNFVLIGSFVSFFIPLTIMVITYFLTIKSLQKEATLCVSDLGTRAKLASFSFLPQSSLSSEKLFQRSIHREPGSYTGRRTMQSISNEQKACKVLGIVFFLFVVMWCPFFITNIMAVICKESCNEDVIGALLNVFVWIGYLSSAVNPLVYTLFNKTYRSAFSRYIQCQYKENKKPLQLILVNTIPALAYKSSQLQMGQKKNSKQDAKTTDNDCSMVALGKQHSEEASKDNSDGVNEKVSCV
# Type: functional, cell-based
Quantity Measured: AC50

# example entries with known answers
CC(=O)c1ccc(S(=O)(=O)NC(=O)NC2CCCCC2)cc1 [ACETOHEXAMIDE]: > 30 µM
CC/C=C\C/C=C\C/C=C\C/C=C\C/C=C\CCCC(=O)OCC: > 30 µM
O=C(NCCO[N+](=O)[O-])c1cccnc1: > 30 µM
CCCCCCCN(CC)CCCC(O)c1ccc(NS(C)(=O)=O)cc1 (centres undefined) [IBUTILIDE]: 25 µM
CO/N=C(\C(=O)N[C@@H]1C(=O)N2C(C(=O)O)=CCS[C@H]12)c1csc(N)n1: > 30 µM

Your task in this section: give AC50 for each listed record.
1. C[N+]1(C)CCC(=C(c2ccccc2)c2ccccc2)CC1
2. CC(Cc1cccc(C(F)(F)F)c1)NCCOC(=O)c1ccccc1 (centres undefined)
3. CC(=O)Nc1ccc(CC(=O)O)cc1
4. CC1(C)S[C@@H]2[C@H](NC(=O)C(C(=O)O)c3ccccc3)C(=O)N2[C@H]1C(=O)O (some centres undefined)

OUTPUT:
["19 µM", "6.86 µM", "> 30 µM", "> 30 µM"]

----------
Exercise: state measured AC50 for each of the compounds provided.
# Target Or Test System: Vasopressin V1a receptor (Homo sapiens); note: assay procedure not described here
# Sequence (P37288 whole entry): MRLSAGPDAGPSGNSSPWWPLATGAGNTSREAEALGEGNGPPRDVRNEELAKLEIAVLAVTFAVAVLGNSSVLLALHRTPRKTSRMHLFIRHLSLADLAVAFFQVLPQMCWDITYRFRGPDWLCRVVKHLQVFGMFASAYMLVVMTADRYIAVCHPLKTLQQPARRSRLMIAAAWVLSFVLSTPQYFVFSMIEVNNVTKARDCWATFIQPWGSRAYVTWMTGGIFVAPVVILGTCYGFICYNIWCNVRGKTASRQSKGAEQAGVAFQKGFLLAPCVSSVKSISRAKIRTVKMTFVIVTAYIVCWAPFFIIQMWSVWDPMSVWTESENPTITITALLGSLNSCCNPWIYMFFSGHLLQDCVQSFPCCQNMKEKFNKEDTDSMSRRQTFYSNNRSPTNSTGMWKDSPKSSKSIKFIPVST

Below: 5 compounds and their reported AC50.
Cc1nc(Nc2ncc(C(=O)Nc3c(C)cccc3Cl)s2)cc(N2CCN(CCO)CC2)n1: > 30 µM
CN1CCN=C(c2ccccc2)c2cc(Cl)ccc21: > 30 µM
COc1ccc([C@@H]2CC(=O)c3c(O)cc(O)cc3O2)cc1O: > 10 µM
CCOC(=O)[C@@H](N)Cc1ccc(-c2cc(O[C@H](c3ccc(Cl)cc3-n3ccc(C)n3)C(F)(F)F)nc(N)n2)cc1: > 30 µM
C[C@@H]1C[C@H]2[C@@H]3CCC4=CC(=O)C=C[C@]4(C)[C@@]3(F)[C@@H](O)C[C@]2(C)[C@@]1(O)C(=O)CO: > 30 µM

Quick one: give me AC50 for each item below, same order please.
1. CC(C)Cc1ccc([C@H](C)C(=O)O)cc1
2. CN[C@@H](C)[C@@H](O)c1ccccc1
3. CC(C)NC[C@H](O)COc1ccc(CC(N)=O)cc1

OUTPUT:
["> 30 µM", "> 10 µM", "> 10 µM"]

----------
Here's a batch of compounds along with measured AC50 for Sodium-dependent noradrenaline transporter (Homo sapiens).

Kindly give each listed record's AC50.
1. Clc1ccc(CCC(Cn2ccnc2)Sc2c(Cl)cccc2Cl)cc1 (stereo unspecified)
2. CC(O)(CS(=O)(=O)c1ccc(F)cc1)C(=O)Nc1ccc(C#N)c(C(F)(F)F)c1 (stereo unspecified) [BICALUTAMIDE]
3. C[C@]12CCC(=O)C[C@@H]1CC[C@@H]1[C@@H]2CC[C@]2(C)[C@@H](O)CC[C@@H]12
4. CC(C)Cc1ccc([C@H](C)C(=O)O)cc1
5. CN(C)Cc1nnc2n1-c1ccc(Cl)cc1C(c1ccccc1)=NC2
6. C[C@]12C=CC(=O)C=C1CC[C@@H]1[C@@H]2CC[C@]2(C)OC(=O)CC[C@@H]12
7. CCCc1nc2c(C)cc(-c3nc4ccccc4n3C)cc2n1Cc1ccc(-c2ccccc2C(=O)O)cc1
8. C/C=C(/C(=C/C)c1ccc(O)cc1)c1ccc(O)cc1

OUTPUT:
> 30 µM
> 30 µM
> 30 µM
> 30 µM
> 10 µM
> 10 µM
> 30 µM
> 30 µM

meta.source: ChEMBL document CHEMBL5291721
